read-out: CYP2E1 (gene 1571); assay: LTEA_HepaRG_CYP2E1: Life Technologies and Expression Analysis (LTEA) Assay for CYP2E1 using HepaRG (AID 2283485); details: mRNA level, 48 h; actives raise or lower the signal
Activity calls are given as the source filed them. How the source made its calls: active means hit-call score of the fitted dose curve at least 0.9, where 1 is the maximum; inactive means score below 0.9.
Parameter call: string, one of active, inactive

Completed entries (count: 10):
>>> category("Cc1ccc(N(C)C)cc1")
"inactive"
>>> category("Cc1oc(-c2ccccc2)nc1CCOc1cccc2c1ccn2CCC(=O)O")
"active"
>>> category("Nc1ccc(S(=O)(=O)c2ccc(N)cc2)cc1")
"active"
>>> category("COC(=O)c1ccc(O)cc1")
"inactive"
>>> category("Cc1nc(-c2ccc3c(c2)CCN(CCC2CCC(NC(=O)/C=C/c4ccc(F)cc4)CC2)CC3)no1 (configuration not stated)")
"inactive"
>>> category("C=CCc1ccc(O)c(OC)c1")
"inactive"
>>> category("CCCCCC(=O)O")
"inactive"
>>> category("FC(F)(F)C(F)(F)C(F)(F)C(F)(F)C(F)(F)C(F)(F)CCI")
"inactive"
>>> category("CN[C@H]1CC[C@@H](c2ccc(Cl)c(Cl)c2)c2ccc(S(N)(=O)=O)cc21")
"active"
>>> category("COCCOC[C@H](CC1(C(=O)NC2CCC(C(=O)O)CC2)CCCC1)C(=O)Oc1ccc2c(c1)CCC2 (some centres not stated)")
"inactive"

Called result for Cc1c(C(=O)O)c(O)cc2c1C(=O)c1c(O)c([C@@H]3O[C@H](CO)[C@@H](O)[C@H](O)[C@H]3O)c(O)c(O)c1C2=O
inactive

Tell me the assay call for CC=Cc1ccc(O)c(OC)c1 please.
inactive
